System: biotinyl-Trp-oxazolone
method: self-aminoacylation, catalytic enhancement (BWO) (fold over background); higher = more active; k-Seq, kA / k0A0; sequences stand for … in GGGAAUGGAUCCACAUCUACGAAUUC…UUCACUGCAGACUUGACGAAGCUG
Variants at the floor of the assay were thinned out.
measure: self-aminoacylation
The response must contain the number and no unit.

# example entries with known answers
| macromoleculeSequence | measurement |
| --- | --- |
| AUUCACCUAGGCCAUCGCGUG [Fam2.2 aminoacylation ribozyme variant] | 3.85 |
| CCACACUUAAAGCAACCGGUC [Fam1B.1 aminoacylation ribozyme variant] | 0.943 |
| AUUCACCUGGGUCAUCGCGUG [Fam2.2 aminoacylation ribozyme variant] | 14.3 |

Record CAACACUUCAAGCAAUUGGUC [Fam1B.1 aminoacylation ribozyme variant] , field self-aminoacylation: 0.958
